molecular target: human mAChR M4 (Homo sapiens, UniProt P08173); construct: expressed in transfected cells; assay: mAChR M4 cell-based functional assay (calcium mobilization, CHO-K1 hM4-Gqi5 cells); settings: positive allosteric modulator activity, increase in the EC20 acetylcholine response, CHO-K1 hM4-Gqi5 cells; read-out: Human M4 EC50
Sequence (P08173 whole entry): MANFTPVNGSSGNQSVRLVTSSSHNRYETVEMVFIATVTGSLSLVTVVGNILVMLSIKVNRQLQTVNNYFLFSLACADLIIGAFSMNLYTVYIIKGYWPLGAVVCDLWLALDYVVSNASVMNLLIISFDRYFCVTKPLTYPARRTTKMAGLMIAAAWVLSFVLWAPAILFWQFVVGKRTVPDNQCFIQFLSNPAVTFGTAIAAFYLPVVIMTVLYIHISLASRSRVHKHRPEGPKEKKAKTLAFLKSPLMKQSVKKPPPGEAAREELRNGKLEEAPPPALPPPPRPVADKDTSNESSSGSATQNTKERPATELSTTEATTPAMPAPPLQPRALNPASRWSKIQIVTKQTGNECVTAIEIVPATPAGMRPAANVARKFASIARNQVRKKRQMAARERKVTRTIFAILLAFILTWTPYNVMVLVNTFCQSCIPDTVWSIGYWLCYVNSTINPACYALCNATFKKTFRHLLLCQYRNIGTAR
pEC50: −log10 of the molar value.
reported-endpoint: pEC50

Take a look at these entries with their results.
Cc1cc(F)ncc1-c1cnc2c(c1)CN(c1ncc(C(=O)NCc3nccs3)cc1C)CC2 [compound 174]: 7.12
[2H]C1([2H])Cc2ncc(Nc3ccncc3C)cc2C([2H])([2H])N1c1nnc(C#N)c(C)c1C [Example 609]: 6.12
COc1ccc(-c2cnc3c(c2)CN(c2ncc(C#N)cc2C)CC3)cn1 [compound 188]: 6.61
Cc1cc(C#N)nnc1N1CCc2ncc(N3CCCn4nc(C5CC5)cc43)cc2C1 [Example 419]: 6.55
Cc1cc(C(=O)N2CC(c3ccncc3)C2)nnc1N1CCc2ncc(N3CCCn4nccc43)cc2C1 [Example 517]: 7.92
Cc1cnccc1Nc1cnc2c(c1)CN(c1nnc(C#N)cc1C)CC2 [Example 619]: 5.99
Cc1nc(Cl)c(C)c(N2CCc3ncc(-c4cnc(C)s4)cc3C2)n1 [compound 199]: 6.85
Cc1cc(C(=O)NCc2ccccc2)cnc1N1CCc2ncccc2C1 [compound 70]: 5.53
Cc1nc(Cl)c(C)c(N2CCc3ncc(Nc4cc(F)ccc4F)cc3C2)n1 [compound 88]: 6.14
Cc1cc(C(=O)N2CCCC2)nnc1N1CCc2ncc(C(F)(F)F)cc2C1 [Example 502]: 5.45

(P) Cc1cnc2c(c1)CN(c1nnc(C(=O)NCc3cncs3)c(C)c1C)CC2 [Example 468]
(Q) Cc1cc(C#N)cnc1N1CCc2ncc(OCCOc3ccccc3F)cc2C1 [Example 429]
Query: Which record would sort first by descending pEC50, P or Q ? Return value: the label identifying the chosen record.
Result: P
(P: 6.92, Q: 5.60)
